Reported MIC by item:
system: A. viscosus ATCC43146; test: MIC vs. oral germs, broth dilution method; type: cell-based, Actinomyces viscosus; settings: Actinomyces viscosus, ATCC43146, read-out: MHK (MIC) A. viscosus ATCC43146
Give just the number in µg/mL; leave the unit off.

{"compound": "CC(C)COC(=O)/C(C#N)=C(\\O)c1ccc(-c2ccccc2)cc1 [(101c)]", "reported": 7.5}

For the next question, use this compound.
Q: Given the entry CCCCOC(=O)/C(C#N)=C(\O)c1ccc(-c2ccccc2)cc1 [(101b)] , report its measured MIC.
Ans: 3.75

* * *

Observed MIC values for Corynebacterium xerosis ATCC 373 are listed in what follows.
Give just the number in µg/mL; leave the unit off.

Answered examples (2):
{"compound": "CCCCOC(=O)/C(C#N)=C(\\O)c1ccc(-c2ccccc2)cc1 [(101b)]", "MIC (µg/mL)": 3.13}
{"compound": "CCCCC(CC)COC(=O)C(C#N)=C(O)c1ccc(-c2ccccc2)cc1 (stereo not shown) [(101e)]", "MIC (µg/mL)": 1.9}

For the next question, use this compound.
Q: Lab note: need MIC with Corynebacterium xerosis ATCC 373 for entry CC(C)COC(=O)/C(C#N)=C(\O)c1ccc(-c2ccccc2)cc1 [(101c)] , please look it up.
Ans: 3.13

* * *

Observed MIC values for Propionibacterium acnes ATCC 6919 are listed in what follows.
Give just the number in µg/mL; leave the unit off.

Answered examples (3):
{"molecule": "CC(C)COC(=O)/C(C#N)=C(\\O)c1ccc(-c2ccccc2)cc1 [(101c)]", "quantity_measured": "MIC", "reported": 12.5}
{"molecule": "CCCCOC(=O)/C(C#N)=C(\\O)c1ccc(-c2ccccc2)cc1 [(101b)]", "quantity_measured": "MIC", "reported": 12.5}
{"molecule": "CCCCC(CC)COC(=O)C(C#N)=C(O)c1ccc(-c2ccccc2)cc1 (stereo not shown) [(101e)]", "quantity_measured": "MIC", "reported": 0.94}

For the next question, use this molecule.
Q: Given the entry CCCCCCCCOC(=O)/C(C#N)=C(\O)c1ccc(-c2ccccc2)cc1 [(101d)] , report its measured MIC.
Ans: 6.25

* * *

System: Corynebacterium sp. (Corynebacterium xerosis ATCC 373 oder C. minutissimum ATCC 23348)
Experiment: Automatic MIC-Screening, broth dilution method
Type: cell-based
Details: micro titer plates, 37° C., 24 hours, tested 120 to 3.75 μg/ml
Protocol: Determination of the Minimum Inhibitory Concentration (MIC Value) 8 μl of each dilution step is mixed with 192 μl of nutrient medium in micro titer plates. The plates are incubated at 37° C. for 24 hours and then the highest dilution (lowest concentration) of the test substance at which growth is just no longer discernible is determined (corresponds to the MIC).
Reported MIK (MIC) Corynebacterium sp. by item:
Give just the number in μγ/ml; leave the unit off.

{"compound": "CC(C)COC(=O)/C(C#N)=C(\\O)c1ccc(-c2ccccc2)cc1 [(101c)]", "MIK (MIC) Corynebacterium sp. / μγ/ml": 7.5}

For the next question, use this compound.
Q: Given the entry CCCCOC(=O)/C(C#N)=C(\O)c1ccc(-c2ccccc2)cc1 [(101b)] , report its measured MIK (MIC) Corynebacterium sp..
Ans: 15

* * *

test system: S. mutans ATCC33402; assay: MIC vs. oral germs, broth dilution method; type: cell-based, Streptococcus mutans; conditions: Streptococcus mutans, ATCC33402, 24 h, read-out: MHK (MIC) S. mutans ATCC33402
quantity_measured: MIC (µg/mL)
Give just the number in µg/mL; leave the unit off.

{"compound": "CCCCOC(=O)/C(C#N)=C(\\O)c1ccc(-c2ccccc2)cc1 [(101b)]", "quantity_measured": "MIC", "measure_unit": "µg/mL", "reported": 5.63}

For the next question, use this compound.
Q: Given the entry CC(C)COC(=O)/C(C#N)=C(\O)c1ccc(-c2ccccc2)cc1 [(101c)] , report its measured MIC.
Ans: 5.63

* * *

Reported MIC by item:
tested on: P. gingivalis ATCC3277; experiment: MIC vs. oral germs, broth dilution method; assay type: cell-based, Porphyromonas gingivalis; settings: Porphyromonas gingivalis, ATCC3277, read-out: MHK (MIC) P. gingivalis ATCC3277
Give just the number in µg/mL; leave the unit off.

{"compound": "CCCCC(CC)COC(=O)C(C#N)=C(O)c1ccc(-c2ccccc2)cc1 (stereo not shown) [(101e)]", "measure_unit": "µg/mL", "MIC": 15}
{"compound": "CC(C)COC(=O)/C(C#N)=C(\\O)c1ccc(-c2ccccc2)cc1 [(101c)]", "measure_unit": "µg/mL", "MIC": 7.5}
{"compound": "CCCCOC(=O)/C(C#N)=C(\\O)c1ccc(-c2ccccc2)cc1 [(101b)]", "measure_unit": "µg/mL", "MIC": 3.75}

For the next question, use this compound.
Q: Given the entry CCCCCCCCOC(=O)/C(C#N)=C(\O)c1ccc(-c2ccccc2)cc1 [(101d)] , report its measured MIC.
Ans: 7.5

* * *

Reported MIC by item:
test system: F. nucleatum subsp. polymorphum ATCC10953; assay: MIC vs. oral germs, broth dilution method; type: cell-based, Fusobacterium nucleatum subsp. polymorphum; conditions: Fusobacterium nucleatum, ATCC10953, read-out: MHK (MIC) F. nucleatum subsp. polymorphum ATCC10953
Give just the number in µg/mL; leave the unit off.

Q: Given the entry CCCCCCCCOC(=O)/C(C#N)=C(\O)c1ccc(-c2ccccc2)cc1 [(101d)] , report its measured MIC.
Ans: 15

Q: Given the entry CC(C)COC(=O)/C(C#N)=C(\O)c1ccc(-c2ccccc2)cc1 [(101c)] , report its measured MIC.
Ans: 7.5
